# reported kon; entries follow
ASSAYED TARGET: T1, ZIKV (prM80E) with a C-terminal myc-myc-hexahistidine tag (Zika virus, UniProt A0A024B7W1 104-694)
T1 construct: also called ZIKV (prM80E)-mmH; ZIKV-mmH
ASSAY COMMENT: SPR, mAb captured, 37C

BINDER: H4H25619P (antibody, V domains shown) VH: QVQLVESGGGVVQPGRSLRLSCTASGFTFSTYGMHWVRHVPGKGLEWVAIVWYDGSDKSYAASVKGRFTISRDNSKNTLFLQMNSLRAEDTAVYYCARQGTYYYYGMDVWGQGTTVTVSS VL: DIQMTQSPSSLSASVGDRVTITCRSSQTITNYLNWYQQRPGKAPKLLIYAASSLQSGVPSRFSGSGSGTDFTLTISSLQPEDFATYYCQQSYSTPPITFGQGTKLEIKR
RESULT: 193000 M⁻¹ s⁻¹

Let's switch to this binder now.
Please supply the value of reported kon for the item H4H25598P (antibody, V domains shown) VH: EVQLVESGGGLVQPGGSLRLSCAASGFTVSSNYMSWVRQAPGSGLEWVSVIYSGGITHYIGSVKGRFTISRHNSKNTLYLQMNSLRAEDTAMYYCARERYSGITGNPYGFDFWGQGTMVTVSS VL: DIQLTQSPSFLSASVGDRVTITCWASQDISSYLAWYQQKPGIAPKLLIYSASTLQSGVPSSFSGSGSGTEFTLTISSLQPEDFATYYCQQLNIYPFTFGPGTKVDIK 406000 M⁻¹ s⁻¹
